Test system: Jurkat viability, CellTiter-Glo ATP luminescence
Experiment: Jurkat T cell cytotoxicity, late-stage follow-up, cytotoxicity control for TAAR1 agonist/antagonist project, luminescence, powder samples (AID 1053179)
Calls of active or inactive are those of the source.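 Rule for the calls: active = IC50 for loss of cell viability, measured as ATP drop, at or below 10 µM; inactive = the rest.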
Please answer using one outcome listed in yes = active, no = inactive

Example entries begin here.
Cc1ccc(C(=O)CCN2CCC(c3ccccc3)C2)cc1 (configuration not stated): yes
N#Cc1c(C(F)(F)F)cc(-c2ccc(Cl)cc2)nc1SCC(=O)Nc1ncccn1: no
N#Cc1c(C(F)(F)F)cc(-c2ccc(Cl)cc2)nc1SCC(=O)N1CCCC1: no
CC(CN1CCCC1Cc1ccccc1)C(=O)c1ccc2c(c1)OCCO2 (configuration not stated): yes
O=C(CCN1CCC(c2ccccc2)C1)c1ccccc1 (configuration not stated): yes
N#Cc1c(C(F)(F)F)cc(-c2ccc(Cl)cc2)nc1SCC(=O)N1CCCCCC1: no

Lab note: next molecule to report on.
Q. What call does the record list for COc1cc(C(=O)CCN2CCC(c3ccccc3)C2)cc(OC)c1OC (configuration not stated) ?
A. yes
